System: rat VMAT2 (Rattus norvegicus, UniProt Q01827)
Sequence (Q01827 whole entry): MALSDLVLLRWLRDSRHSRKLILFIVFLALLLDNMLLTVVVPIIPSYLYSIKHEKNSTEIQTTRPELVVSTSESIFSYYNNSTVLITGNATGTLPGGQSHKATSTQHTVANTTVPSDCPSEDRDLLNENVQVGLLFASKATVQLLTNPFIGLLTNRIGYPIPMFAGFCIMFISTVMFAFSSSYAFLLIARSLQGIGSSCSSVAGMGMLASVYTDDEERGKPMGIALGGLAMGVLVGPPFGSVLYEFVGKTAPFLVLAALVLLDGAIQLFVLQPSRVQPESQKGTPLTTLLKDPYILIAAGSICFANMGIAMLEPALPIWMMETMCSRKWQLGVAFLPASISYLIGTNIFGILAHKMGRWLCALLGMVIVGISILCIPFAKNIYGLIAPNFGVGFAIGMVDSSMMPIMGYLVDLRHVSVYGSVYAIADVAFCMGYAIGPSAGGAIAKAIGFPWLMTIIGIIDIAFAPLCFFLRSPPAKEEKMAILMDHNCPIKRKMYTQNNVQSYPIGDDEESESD
Test method notes: FFN206 uptake assay in transfected Hek293 cells
Counter-ions that a name gives are not always drawn.
Property: log10 IC50 (log10 of the value in µM)
# values: log10(IC50), units µM

Here's what some known entries look like.
{"Molecule": "CC(C)NCC(O)COc1ccc(COCCOC(C)C)cc1 (centres unmarked) [Bisoprolol]", "Property": "log10 IC50", "Measured": 0.50}
{"Molecule": "CC(C)NCC(O)c1ccc2ccccc2c1 (centres unmarked) [Pronethalol, Pronethalol hydrochloride]", "Property": "log10 IC50", "Measured": 0.00}
{"Molecule": "COc1ccccc1OCCNCC(O)COc1cccc2[nH]c3ccccc3c12 (centres unmarked) [Carvedilol]", "Property": "log10 IC50", "Measured": -0.73}
{"Molecule": "COc1ccc(CN2CCN(C(c3ccc(F)cc3)c3ccc(F)cc3)CC2)c(OC)c1OC [Lomerizine, Lomerizine hydrochloride]", "Property": "log10 IC50", "Measured": 0.59}

What measured log10 IC50 goes with O=C1Cc2cc(CCN3CCN(c4nsc5ccccc45)CC3)c(Cl)cc2N1 [Ziprasidone, Ziprasidone Hydrochloride] ?
-1.41

###

System: rat VMAT2-His (Rattus norvegicus)
Construct: The ORF of rat VMAT2 was subcloned into a pFastBac vector; His; made in house; host or cells: Sf9 insect cells (baculovirus)
Sequence (Q01827 whole entry): as above
Test method notes: Differential scanning fluorimetry (DSF) with CPM dye: change of melting temperature of purified VMAT2
Type: binding
Assay conditions: Table S2 dose response, compound 10 µM; read-out: ΔTm
Structures can show the parent of a compound that is named as a salt.
Values of ΔTm at 10 µM strictly less than 0.2 °C map to 1, and values of at least 0.2 °C map to 0.

Below are worked cases with known answers.
{"Molecule": "C#CCN(C)[C@H](C)Cc1ccccc1 [Selegiline hydrochloride]", "System": "rat VMAT2-His (Rattus norvegicus)", "Assigned category": 0}
{"Molecule": "CC(C)(C)NC(=O)[C@@H]1C[C@@H]2CCCC[C@@H]2CN1C[C@@H](O)[C@H](Cc1ccccc1)NC(=O)[C@H](CC(N)=O)NC(=O)c1ccc2ccccc2n1 [Saquinavir mesylate]", "System": "rat VMAT2-His (Rattus norvegicus)", "Assigned category": 1}
{"Molecule": "Cc1cccc(C)c1NC(=O)CN1CCN(CCCC(c2ccc(F)cc2)c2ccc(F)cc2)CC1 [Lidoflazine]", "System": "rat VMAT2-His (Rattus norvegicus)", "Assigned category": 0}
{"Molecule": "CCCCC(CC)CN1CN(CC(CC)CCCC)CC(C)(N)C1 (stereo not shown) [Hexetidine]", "System": "rat VMAT2-His (Rattus norvegicus)", "Assigned category": 1}
{"Molecule": "C[C@H](CCC(=O)O)[C@H]1CC[C@H]2[C@@H]3[C@H](O)C[C@@H]4C[C@H](O)CC[C@]4(C)[C@H]3CC[C@]12C [Chenodiol]", "System": "rat VMAT2-His (Rattus norvegicus)", "Assigned category": 0}

Decide: ΔTm at 10 µM of CCCc1nn(C)c2c(=O)[nH]c(-c3cc(S(=O)(=O)N4CCN(C)CC4)ccc3OCC)nc12 [Sildenafil] strictly below 0.2 °C?
1

Take the molecule COc1ccc(CN2CCN(C(c3ccc(F)cc3)c3ccc(F)cc3)CC2)c(OC)c1OC [Lomerizine, Lomerizine hydrochloride] and say whether its ΔTm at 10 µM is less than 0.2 °C.
1

ΔTm at 10 µM under 0.2 °C? Item: CC(C)(C)c1ccc(C(O)CCCN2CCC(C(O)(c3ccccc3)c3ccccc3)CC2)cc1 (stereo not shown) [Terfenadine]
0

Does OC(c1cc(C(F)(F)F)nc2c(C(F)(F)F)cccc12)C1CCCCN1 (stereo not shown) [Mefloquine hydrochloride] have ΔTm at 10 µM strictly under 0.2 °C?
1

Problem: For the molecule CC(NCCC(c1ccccc1)c1ccccc1)c1ccccc1 (stereo not shown) [Fendiline hydrochloride] , is ΔTm at 10 µM under 0.2 °C?
1
